test system: A/Lyon/969/09 (H1N1 SOIV)
observable: SI = CC50/EC50, H1N1 SOIV

molecule	SI = CC50/EC50, H1N1 SOIV
Nc1ccccc1S(N)(=O)=O [2-Aminobenzenesulfonamide, 2-aminobenzenesulfonamide]	13

// each molecule listed below needs its SI = CC50/EC50, H1N1 SOIV
1. NC(=O)c1ncn([C@@H]2O[C@H](CO)[C@@H](O)[C@H]2O)n1 [Ribavirin, ribavirin]
2. COc1ccc(OC)c(C(O)CNC(=O)CN)c1 (centres unmarked) [Midodrine, midodrine]
3. Cc1nccc2c1[nH]c1cc(O)ccc12.Cl [Harmol, harmol hydrochloride]
4. CCN[C@H]1CN(CCCOC)S(=O)(=O)c2sc(S(N)(=O)=O)cc21 [Brinzolamide, brinzolamide]

**A:**
1: 482; 2: 40; 3: 14; 4: 31

---

Consider the following molecules; for each one, report its EC50.
test system: A/Finch/England/2051/94 (H5N2); conditions: read-out: EC50 H5N2 moi 2
Numbers only, in µM.

// each molecule listed below needs its EC50
1. O=C([O-])c1ccccc1-c1c2cc(Br)c(=O)cc-2oc2[c]([Hg+])c([O-])c(Br)cc12.[Na+].[Na+].[OH-] [Merbromin, merbromine]
2. C[S+](C)[O-] [DMSO, dimethylsulfoxide]

**A:**
1: 36.5; 2: 734

// each molecule listed below needs its EC50
1. Cc1nccc2c1[nH]c1cc(O)ccc12.Cl [Harmol, harmol hydrochloride]
2. C1COC(NC(C2CC2)C2CC2)=N1 [Rilmenidine]

**A:**
1. 4.06
2. 514

---

Consider the following compounds; for each one, report its CC50.
experiment: in vitro; details: human
Give bare numbers, in mM.

compound	result number
CO[C@@]1(NC(=O)C(C(=O)O)c2ccc(O)cc2)C(=O)N2C(C(=O)O)=C(CSc3nnnn3C)CO[C@@H]21 (stereo partly shown)	0.593
CCN[C@H]1CN(CCCOC)S(=O)(=O)c2sc(S(N)(=O)=O)cc21 [Brinzolamide, brinzolamide]	0.666
NC(=O)c1ncn([C@@H]2O[C@H](CO)[C@@H](O)[C@H]2O)n1	29.5
CCCCCCCCNC(C)C(O)c1ccc(SC(C)C)cc1 (stereo not shown)	0.1
COc1cnc(NS(=O)(=O)c2ccc(N)cc2)nc1	4.16

// sample O=C(O)CNC(=O)C(CS)Cc1ccccc1 (racemic) , its CC50 was 6.28

---

system: A/Lyon/969/09 (H1N1 SOIV); experiment: microbe, parasite or virus in culture; settings: Influenza A virus, H1N1, A549, read-out: EC50 SOIV moi 2
observable: pEC50
One number for each entry, as −log10 of the molar value.

// sample `NC(=O)c1ncn([C@@H]2O[C@H](CO)[C@@H](O)[C@H]2O)n1` , its pEC50 was 3.53

---

Parameter CC50, tested on A549 cells, listed per item.
One number for each entry, in µM.

Sample records with CC50:
compound	measurement unit	CC50
O=C([O-])c1ccccc1-c1c2cc(Br)c(=O)cc-2oc2[c]([Hg+])c([O-])c(Br)cc12.[Na+].[Na+].[OH-]	µM	104
Cc1cc(C(C)(C)CC(C)(C)C)ccc1OCCOCC[N+](C)(C)Cc1ccccc1 [Methylbenzethoniumchloride]	µM	6.35
C1COC(NC(C2CC2)C2CC2)=N1	µM	1130

Turning to the following compound.
The value of CC50 recorded for Cc1nccc2c1[nH]c1cc(O)ccc12.Cl [Harmol, harmol hydrochloride] when tested on A549 cells reads 95

---

Consider the following molecules; for each one, report its pEC50.
system: A/New Caledonia/20/99 (H1N1); assay: microbe, parasite or virus in culture; details: Influenza A virus, H1N1, A549, 65 h, read-out: EC50 H1N1 moi 2
Answers are plain numbers, as −log10 of the molar value.

Sample records with pEC50:
molecule	result number
CCN[C@H]1CN(CCCOC)S(=O)(=O)c2sc(S(N)(=O)=O)cc21 [Brinzolamide, brinzolamide]	3.36
NC(=O)c1ncn([C@@H]2O[C@H](CO)[C@@H](O)[C@H]2O)n1	4.13

// sample COc1ccc(OC)c(C(O)CNC(=O)CN)c1 (centres unmarked) , its pEC50 was 2.81

---

test system: A/Turkey/582/2006 (H5N1); test: microbe, parasite or virus in culture; conditions: Influenza A virus, H5N1, A549, 65 h, read-out: EC50 H5N1 moi 2
pEC50: −log10 of the molar value.
observable: pEC50

Sample records with pEC50:
molecule	result
NC(=O)c1ncn([C@@H]2O[C@H](CO)[C@@H](O)[C@H]2O)n1 [Ribavirin, ribavirin]	3.20
CCN[C@H]1CN(CCCOC)S(=O)(=O)c2sc(S(N)(=O)=O)cc21 [Brinzolamide, brinzolamide]	< 3.30
Nc1nc2c(c(=O)[nH]1)N(C=O)C(CNc1ccc(C(=O)N[C@@H](CCC(=O)O)C(=O)O)cc1)CN2 (some centres unmarked) [Calcium Folinate, calcium folinate]	< 3.10
COc1ccc(OC)c(C(O)CNC(=O)CN)c1 (centres unmarked) [Midodrine, midodrine]	< 2.37

// sample Nc1ccccc1S(N)(=O)=O [2-Aminobenzenesulfonamide, 2-aminobenzenesulfonamide] , its pEC50 was < 3.16

---

Consider the following compounds; for each one, report its pEC50.
test system: A/Turkey/582/2006 (H5N1); settings: read-out: EC50 H5N1 moi 0.2
Give bare numbers, as −log10 of the molar value.

Sample records with pEC50:
compound	pEC50
O=C([O-])c1ccccc1-c1c2cc(Br)c(=O)cc-2oc2[c]([Hg+])c([O-])c(Br)cc12.[Na+].[Na+].[OH-] [Merbromin, merbromine]	4.34
C[S+](C)[O-] [DMSO, dimethylsulfoxide]	2.74
C1COC(NC(C2CC2)C2CC2)=N1 [Rilmenidine]	2.83

Turning to the following compound.
The value of pEC50 recorded for Cc1nccc2c1[nH]c1cc(O)ccc12.Cl [Harmol, harmol hydrochloride] when tested on A/Turkey/582/2006 (H5N1) reads 4.36

---

Consider the following molecules; for each one, report its EC50.
test system: A/Turkey/582/2006 (H5N1); test: microbe, parasite or virus in culture; conditions: Influenza A virus, H5N1, A549, 65 h, read-out: EC50 H5N1 moi 0.2
Numbers only, in µM.

molecule	measured target	result number
NC(=O)c1ncn([C@@H]2O[C@H](CO)[C@@H](O)[C@H]2O)n1	A/Turkey/582/2006 (H5N1)	48.4

Turning to the following molecule.
The value of EC50 recorded for COc1ccc(OC)c(C(O)CNC(=O)CN)c1 (centres unmarked) when tested on A/Turkey/582/2006 (H5N1) reads 3900

---

Consider the following compounds; for each one, report its CC50.
assay: in vitro; details: human

Sample records with CC50:
compound	result
CO[C@H]1/C=C\C=C(/C)C(=O)NC2=CC(=O)C(NCCN(C)C)=C(C[C@@H](C)C[C@H](OC)[C@H](O)[C@@H](C)/C=C(\C)[C@@H]1OC(N)=O)C2=O [alvespimycin, Alvespimycin]	> 0.01 mM
Nc1nc2c(c(=O)[nH]1)N(C=O)C(CNc1ccc(C(=O)N[C@@H](CCC(=O)O)C(=O)O)cc1)CN2 (stereo partly shown) [Calcium Folinate, calcium folinate]	> 2.4 mM
Nc1ccccc1S(N)(=O)=O [2-Aminobenzenesulfonamide, 2-aminobenzenesulfonamide]	> 6.9 mM

// sample COc1ccc(OC)c(C(O)CNC(=O)CN)c1 (stereo not shown) [Midodrine, midodrine] , its CC50 was > 4.25 mM

---

tested on: A/Turkey/582/2006 (H5N1); assay: microbe, parasite or virus in culture; settings: Influenza A virus, H5N1, A549, 65 h, read-out: EC50 H5N1 moi 0.2
observable: EC50

Sample records with EC50:
molecule	EC50
Nc1ccccc1S(N)(=O)=O [2-Aminobenzenesulfonamide, 2-aminobenzenesulfonamide]	> 690 µM
Nc1nc2c(c(=O)[nH]1)N(C=O)C(CNc1ccc(C(=O)N[C@@H](CCC(=O)O)C(=O)O)cc1)CN2 (stereo partly drawn) [Calcium Folinate, calcium folinate]	> 800 µM

Turning to the following molecule.
// sample CCN[C@H]1CN(CCCOC)S(=O)(=O)c2sc(S(N)(=O)=O)cc21 [Brinzolamide, brinzolamide] , its EC50 was > 500 µM
